Assignment: determine reported folding stability dG for the given variants.
B1: 6YSE (parent)
chain: HERALMVNRLQKLTRMLRVHPDPKWKQEQQELIKRLK

variants of: B1; test: folding stability dG (cDNA display proteolysis); higher = more stable; details: PBS, room temperature
Number only, in kcal/mol; omit the unit.

Tell me measured folding stability dG for HERALMVNRLQKLTRMLRVHPDPKWKQSQQELIKRLK [E28S] please. -0.485

Tell me measured folding stability dG for HERALMVNRLQKLTRMLRVHPDPKWRQEQQELIKRLK [K26R] please. 1.32

Tell me measured folding stability dG for HERALMVNRLQKLTRMLRDHPDPKWKQEQQELIKRLK [V19D] please. 1.13

Tell me measured folding stability dG for HERALMVNRLQRLTRMLRVHPDPKWKQEQQELIKRLK [K12R] please. 1.3

Tell me measured folding stability dG for HERALMVNRLQKLFRMLRVHPDPKWKQEQQELIKRLK [T14F] please. 0.771

Tell me measured folding stability dG for HERALMVNRLQKLTRMLRVHPDPKWKQEQQELIKRLS [K37S] please. 1.19

Tell me measured folding stability dG for TERALMVNRLQKLTRMLRVHPDPKWKQEQQELIKRLK [H1T] please. 1.45

Tell me measured folding stability dG for HERAKMVNRLQKLTRMLRVHPDPKWKQEQQELIKRLK [L5K] please. 1.6

Tell me measured folding stability dG for HERALMVNRLQKLTRMLRVHPDPKWKQEQAELIKRLK [Q30A] please. 1.07

Tell me measured folding stability dG for HERALMVNRLQKLTRMLRVHPDPKWKVEQQELIKRLK [Q27V] please. 0.985

Tell me measured folding stability dG for HERALMVNELQKLTRMLRVHPDPKWKQEQQELIKRLK [R9E] please. 0.136

Tell me measured folding stability dG for HERALMVNRLQKLTRYLRVHPDPKWKQEQQELIKRLK [M16Y] please. 0.489

Tell me measured folding stability dG for HERALMVNRLFKLTRMLRVHPDPKWKQEQQELIKRLK [Q11F] please. 1.23

Tell me measured folding stability dG for HERALMVNRLQKLTRMLRVHWDPKWKQEQQELIKRLK [P21W] please. 2.02

Tell me measured folding stability dG for HERALMVNRLQKLTRMLRVHPDPKWKQEQQELQKRLK [I33Q] please. -0.155

Tell me measured folding stability dG for HERALMVNRLQKLTRMLRVHPDKKWKQEQQELIKRLK [P23K] please. 0.967

Tell me measured folding stability dG for HERALMVNRLQFLTRMLRVHPDPKWKQEQQELIKRLK [K12F] please. 2.26

Tell me measured folding stability dG for HERALMVNRLQKLTRMLRVHPKPKWKQEQQELIKRLK [D22K] please. 1.23

Tell me measured folding stability dG for HERALMVNRLQKLMRMLRVHPDPKWKQEQQELIKRLK [T14M] please. 1.21

Tell me measured folding stability dG for HERALMVNRLQKLTRMLNVHPDPKWKQEQQELIKRLK [R18N] please. 0.669

Tell me measured folding stability dG for HERALMVNRLQKLTRMLRVHPVPKWKQEQQELIKRLK [D22V] please. 0.67

Tell me measured folding stability dG for HERALMVNRLQKLTRMLRVHPDPKWKQEQCELIKRLK [Q30C] please. 1.75
